# OD450 at 0.53 nM annotations
measurement-target: biotinylated labeled human GPC3 protein (produced in-house) (human, UniProt P51654 25-559, limits assumed, biotinylated (Dojindo, Cat. No. LK03); sites not stated)
test-description: ELISA, biotinylated human GPC3 protein
# value in OD450; strip the unit string

Look over these answered cases.
>>> val("hAb005LH2L1a (antibody, human IgG1, V domains shown, Humanized F3.54.12; VH H2 + VL L1a; expressed as human IgG1) VH: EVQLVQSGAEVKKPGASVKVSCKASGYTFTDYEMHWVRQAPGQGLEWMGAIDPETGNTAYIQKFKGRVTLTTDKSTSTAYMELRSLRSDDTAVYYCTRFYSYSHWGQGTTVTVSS VL: DIVMTQTPLSLPVTPGEPASISCRSSQSLVHSDGNTYLHWYLQKPGQSPQLLIYKVSNRFSGVPDRFSGSGSGTDFTLKISRVEAEDVGVYYCSQNTHVPPTFGGGTKVEIK")
0.066
>>> val("hAb005LH3L1b (antibody, human IgG1, V domains shown, Humanized F3.54.12; VH H3 + VL L1b; expressed as human IgG1) VH: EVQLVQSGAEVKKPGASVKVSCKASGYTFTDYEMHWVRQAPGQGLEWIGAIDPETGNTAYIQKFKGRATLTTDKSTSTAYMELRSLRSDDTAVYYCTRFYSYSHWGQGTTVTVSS VL: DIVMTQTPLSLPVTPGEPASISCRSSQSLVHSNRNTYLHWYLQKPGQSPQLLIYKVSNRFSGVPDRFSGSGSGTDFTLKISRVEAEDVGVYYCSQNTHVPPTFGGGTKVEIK")
0.952

# input Quick one: OD450 at 0.53 nM for hAb005LH1L1b (antibody, human IgG1, V domains shown, Humanized F3.54.12; VH H1 + VL L1b; expressed as human IgG1) VH: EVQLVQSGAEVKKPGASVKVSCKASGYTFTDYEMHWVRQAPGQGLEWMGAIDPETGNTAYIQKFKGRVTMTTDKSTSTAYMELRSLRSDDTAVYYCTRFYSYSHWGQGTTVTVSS VL: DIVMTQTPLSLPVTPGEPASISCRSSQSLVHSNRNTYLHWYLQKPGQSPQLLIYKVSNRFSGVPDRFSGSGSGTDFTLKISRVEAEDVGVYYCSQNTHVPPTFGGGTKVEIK ?
# output 1.04
